Values compiled from patent US20230096766A1.

# test_method_notes: Membrane permeability test of cyclic peptides (Caco-2, modified/improved method of WO 2018/124162)
# cond: human, Caco-2, Caco-2 (cm/sec), membrane permeability, Caco-2
Where a SMILES comes first, the peptide text is derived from it. Bridges are numbered along the chain shown (N, C = ends). [ ]: non-standard residue; d: D form. The star is where a group is joined. hPhe(3-OMe,4-CONHMe) = CNC(=O)c1ccc(CC[C@H](N)C(=O)O)cc1OC; NMeF = CN[C@@H](Cc1ccccc1)C(=O)O; NMeI = CC[C@H](C)[C@H](NC)C(=O)O; NMeL = CN[C@@H](CC(C)C)C(=O)O; dNMeL = CN[C@H](CC(C)C)C(=O)O; Piperidide = C1CCN(*)CC1; tBu = CC(C)(C)*
observation_type: Papp (×10⁻⁶ cm/s)
Number only, in ×10⁻⁶ cm/s; omit the unit.

Q: Using the record for CC[C@H](C)[C@H]1C(=O)N[C@@H](CCc2ccc(C(=O)NC)c(OC)c2)C(=O)N[C@H](C(=O)N2CCCCC2)CC(=O)N(C)[C@H](CC(C)C)C(=O)N[C@@H](COC(C)(C)C)C(=O)N(C)[C@@H](CC(C)C)C(=O)N[C@@H]([C@@H](C)O)C(=O)N(C)[C@@H](Cc2ccccc2)C(=O)N(C)[C@@H](CC(C)C)C(=O)NCC(=O)N1C [AP264] ([dNMeL]S(tBu)[NMeL]T[NMeF][NMeL]G[NMeI][hPhe(3-OMe,4-CONHMe)]D-Piperidide; lactam N-10) , report its Papp.
A: 0.17
